# assay info: in vitro
# condition summary: rat, gh3-tre-luc cells, AC50 (uM) modified / 1000, Tox21_110001=Tox21_202725; viability, 1 nM T3 present, 24 h
result type: CC50 at 24 h

// CC50 at 24 h lookup, molecule = CN1[C@@H]2CC[C@H]1CC(O)C2 (stereo partly shown) , result: > 100 µM

###

# assay info: in vitro
# Parameters: species or system GH3-TRE-Luc (rat pituitary); CellTiter-Fluor viability run in parallel with antagonist mode (1 nM T3), loss of viability
# condition summary: rat, gh3-tre-luc cells, AC50 (uM) modified / 1000, Tox21_110001=Tox21_301894, viability, 1 nM T3 present
result type: CC50 at 24 h

Recorded result, CCOP(=O)(CN(CCO)CCO)OCC , CC50 at 24 h: > 90 µM

###

# assay info: in vitro
# condition summary: rat, gh3-tre-luc cells, AC50 (uM) modified / 1000, Tox21_110001=Tox21_302863; viability, 1 nM T3 present, 24 h
result type: CC50 at 24 h

For reference, reported CC50 at 24 h for CC(C)CON=O stands at > 30 µM

###

# assay info: in vitro
# condition summary: rat, gh3-tre-luc cells, AC50 (uM) modified / 1000, Tox21_110001=Tox21_200327; viability, 1 nM T3 present, 24 h
result type: CC50 at 24 h (µM)
Give the quantity in µM, number only.

Per the records, this compound ( Brc1ccc(Oc2ccc(Br)cc2Br)c(Br)c1 ) has CC50 at 24 h equal to 83.3

###

# assay info: in vitro
# condition summary: rat, gh3-tre-luc cells, AC50 (uM) modified / 1000
Where a name gives a salt, the structure may show the parent alone.
result type: CC50 at 24 h

Use the examples below as a reference point.
N[C@@H](Cc1c[nH]c2ccccc12)C(=O)O [l-Tryptophan] :: > 90 µM
CN(C)CC/C=C1/c2ccccc2COc2ccc(CC(=O)O)cc21 [Olopatadine hydrochloride] :: > 50 µM
C=C(C)C(=O)OC(C)C [Isopropyl methacrylate] :: > 90 µM
CC(C)(C)NC(=O)[C@H]1CC[C@H]2[C@@H]3CC=C4C=C(C(=O)O)CC[C@]4(C)[C@H]3CC[C@]12C [Epristeride] :: > 50 µM

Let's switch to this molecule now.
So for CCN(CCCc1ccccc1)CCCc1ccccc1 [Alverine citrate] , the logged CC50 at 24 h turned out to be > 20 µM

###

# assay info: in vitro
# condition summary: rat, gh3-tre-luc cells, AC50 (uM) modified / 1000, Tox21_110001=Tox21_302894; viability, 1 nM T3 present, 24 h
Counter-ions that a name gives are not always drawn.
result type: CC50 at 24 h (µM)
Answer with a number only, understood to be in µM.

Documented CC50 at 24 h of Nc1ccc(-c2ccc(N)c(Cl)c2)cc1Cl [3,3'-Dichlorobenzidine dihydrochloride] : 20.3

###

# assay info: in vitro
# condition summary: rat, gh3-tre-luc cells, AC50 (uM) modified / 1000, Tox21_110001=Tox21_201196; viability, 1 nM T3 present, 24 h
result type: CC50 at 24 h

ClC(Cl)=C(Cl)Cl yielded CC50 at 24 h of > 90 µM

Provenance of the data: paper PMC6792352
